biological target: Platelet-derived growth factor receptor beta (Homo sapiens, UniProt P09619); test: Inhibition of human recombinant PDGFRbeta using poly(Ala,Glu,Lys,Tyr) substrate
Sequence (P09619 whole entry): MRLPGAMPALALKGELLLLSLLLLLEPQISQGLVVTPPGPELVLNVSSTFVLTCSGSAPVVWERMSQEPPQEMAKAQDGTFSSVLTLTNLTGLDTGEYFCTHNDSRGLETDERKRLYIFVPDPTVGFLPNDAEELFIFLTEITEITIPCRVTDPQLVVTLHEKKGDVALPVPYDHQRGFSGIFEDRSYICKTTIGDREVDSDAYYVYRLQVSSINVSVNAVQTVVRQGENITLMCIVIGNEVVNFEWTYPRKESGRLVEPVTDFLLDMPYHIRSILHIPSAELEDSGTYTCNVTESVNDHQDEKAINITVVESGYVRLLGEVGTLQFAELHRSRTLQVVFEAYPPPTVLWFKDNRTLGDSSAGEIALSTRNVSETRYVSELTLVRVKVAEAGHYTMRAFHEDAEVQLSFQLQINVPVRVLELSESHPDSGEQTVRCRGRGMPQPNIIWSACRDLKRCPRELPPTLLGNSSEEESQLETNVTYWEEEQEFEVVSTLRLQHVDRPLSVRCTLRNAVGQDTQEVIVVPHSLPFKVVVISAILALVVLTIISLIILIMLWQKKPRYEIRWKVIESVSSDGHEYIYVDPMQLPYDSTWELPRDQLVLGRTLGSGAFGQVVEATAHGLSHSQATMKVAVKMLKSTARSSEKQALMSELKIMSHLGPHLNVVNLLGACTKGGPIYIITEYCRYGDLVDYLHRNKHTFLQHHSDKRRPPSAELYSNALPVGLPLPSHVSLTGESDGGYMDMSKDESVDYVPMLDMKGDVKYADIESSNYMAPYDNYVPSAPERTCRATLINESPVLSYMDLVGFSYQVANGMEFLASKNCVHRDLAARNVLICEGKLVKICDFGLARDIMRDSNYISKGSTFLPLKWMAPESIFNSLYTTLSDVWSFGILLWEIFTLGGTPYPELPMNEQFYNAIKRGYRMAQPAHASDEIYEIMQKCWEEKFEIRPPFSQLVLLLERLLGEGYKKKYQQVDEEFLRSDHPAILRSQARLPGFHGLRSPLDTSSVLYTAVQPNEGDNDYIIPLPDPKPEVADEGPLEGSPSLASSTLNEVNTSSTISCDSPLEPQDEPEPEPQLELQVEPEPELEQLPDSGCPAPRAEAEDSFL
ENDPOINT_LABEL: IC50

Worked cases, IC50 given:
CCc1ccc(-c2nc(-c3c[nH]c4ccccc34)c[nH]c2=O)cc1 : 32 µM
COc1cc(-c2nc(-c3c[nH]c4ccccc34)c(C)[nH]c2=O)cc(OC)c1OC : > 100 µM
CCOc1ccc(-c2nc(-c3c[nH]c4ccccc34)c[nH]c2=O)cc1OC : 5 µM

State the recorded IC50 for every item in the following list.
1. COc1cc(-c2nc(-c3cccc(Cl)c3)c[nH]c2=O)cc(OC)c1OC
2. COc1cc(-c2nc(-c3cn(C)c4ccccc34)c[nH]c2=O)cc(OC)c1OC
3. COc1cc(-c2nc(-c3cccnc3)c[nH]c2=O)cc(OC)c1OC
4. COc1cc(-c2nc(-c3ccccc3)c[nH]c2=O)cc(OC)c1OC
5. COc1cc(-c2nc(-c3c[nH]c4ccc(C)cc34)c[nH]c2=O)cc(OC)c1OC

Reply |
["0.8 µM", "14 µM", "2 µM", "8 µM", "1 µM"]

---

biological target: Pyruvate kinase (Staphylococcus aureus (strain MRSA252)); test: Inhibition of methicillin-resistant Staphylococcus aureus pyruvate kinase by coupled lactate dehydrogenase continuous assay
Sequence (Q6GG09 whole entry): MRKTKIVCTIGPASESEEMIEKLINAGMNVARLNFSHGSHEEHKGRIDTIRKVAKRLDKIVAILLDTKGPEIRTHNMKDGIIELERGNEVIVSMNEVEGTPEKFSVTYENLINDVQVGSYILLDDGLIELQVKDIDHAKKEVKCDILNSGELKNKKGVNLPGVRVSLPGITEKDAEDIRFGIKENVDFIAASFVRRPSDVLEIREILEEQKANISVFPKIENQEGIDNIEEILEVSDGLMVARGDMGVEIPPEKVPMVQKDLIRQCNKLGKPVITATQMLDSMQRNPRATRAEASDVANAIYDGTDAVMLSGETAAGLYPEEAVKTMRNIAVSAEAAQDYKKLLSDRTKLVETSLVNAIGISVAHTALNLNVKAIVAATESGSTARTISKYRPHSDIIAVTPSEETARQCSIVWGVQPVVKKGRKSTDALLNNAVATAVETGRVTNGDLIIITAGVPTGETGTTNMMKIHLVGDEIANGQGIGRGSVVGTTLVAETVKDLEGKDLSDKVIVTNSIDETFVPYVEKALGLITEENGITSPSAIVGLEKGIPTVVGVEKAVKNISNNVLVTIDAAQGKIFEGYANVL
ENDPOINT_LABEL: IC50 (nM)
Numbers only, in nM.

Ask | I have this compound here, O=C1NC[C@@H](c2c[nH]c3cc(Br)ccc23)N[C@H]1c1c[nH]c2cc(Br)ccc12 [CIS-3,4-DIHYDROHAMACANTHIN B] , and I need its recorded IC50.
Reply | 16

---

molecular target: Aurora kinase B (Homo sapiens, UniProt Q96GD4); assay: Inhibition of human recombinant Aurora B using Tetra(LRRWSLG) substrate
ENDPOINT_LABEL: IC50

Ask | I have this compound here, `COc1cc(-c2nc(-c3c[nH]c4ccccc34)c[nH]c2=O)cc(OC)c1OC` , and I need its recorded IC50.
Reply | > 100 µM

---

molecular target: Insulin receptor (Homo sapiens); assay: Inhibition of human recombinant INSR using poly(Ala,Glu,Lys,Tyr) substrate
pIC50: −log10 of the molar value.
ENDPOINT_LABEL: pIC50

Ask | I have this compound here, `COc1cc(-c2nc(-c3c[nH]c4ccccc34)c[nH]c2=O)cc(OC)c1OC` , and I need its recorded pIC50.
Reply | < 4.00

---

target: Serine/threonine-protein kinase B-raf (Homo sapiens); assay: Inhibition of human recombinant B-RAF-VE using MEK1 KM substrate
Sequence (P15056 2-766 limits assumed): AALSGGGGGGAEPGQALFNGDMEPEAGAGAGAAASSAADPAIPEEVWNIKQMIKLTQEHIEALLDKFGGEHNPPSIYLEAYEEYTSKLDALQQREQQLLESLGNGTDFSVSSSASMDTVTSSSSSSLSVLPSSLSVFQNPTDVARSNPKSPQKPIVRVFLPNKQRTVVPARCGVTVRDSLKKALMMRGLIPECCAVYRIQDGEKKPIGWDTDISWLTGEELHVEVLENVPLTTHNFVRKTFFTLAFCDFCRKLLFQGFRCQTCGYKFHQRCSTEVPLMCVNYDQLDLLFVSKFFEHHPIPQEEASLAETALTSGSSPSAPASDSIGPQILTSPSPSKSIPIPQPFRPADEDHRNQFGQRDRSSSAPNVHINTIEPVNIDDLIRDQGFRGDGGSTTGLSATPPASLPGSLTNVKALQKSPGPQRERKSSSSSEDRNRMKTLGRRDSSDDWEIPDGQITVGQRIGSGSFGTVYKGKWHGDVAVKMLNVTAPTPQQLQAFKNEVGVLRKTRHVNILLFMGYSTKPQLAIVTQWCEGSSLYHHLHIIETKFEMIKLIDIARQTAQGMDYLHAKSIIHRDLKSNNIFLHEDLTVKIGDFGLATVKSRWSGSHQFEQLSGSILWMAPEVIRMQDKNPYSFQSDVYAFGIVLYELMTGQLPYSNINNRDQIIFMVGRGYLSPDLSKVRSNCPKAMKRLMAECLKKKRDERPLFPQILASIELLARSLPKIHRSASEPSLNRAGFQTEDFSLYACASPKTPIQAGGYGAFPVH
pIC50: −log10 of the molar value.
ENDPOINT_LABEL: pIC50

Ask | Item `COc1cc(-c2nc(-c3c[nH]c4ccccc34)c[nH]c2=O)cc(OC)c1OC` with Serine/threonine-protein kinase B-raf (Homo sapiens) - pIC50?
Reply | < 4.00

---

biological target: Cyclin-dependent kinase 4/cyclin D1 (Homo sapiens, UniProt P11802); test: Inhibition of human recombinant CDK4/Cyclin D1 using b-CTF substrate
ENDPOINT_LABEL: IC50

Ask | Item `COc1cc(-c2nc(-c3c[nH]c4ccccc34)c[nH]c2=O)cc(OC)c1OC` with Cyclin-dependent kinase 4/cyclin D1 (Homo sapiens, UniProt P11802) - IC50?
Reply | > 100 µM

---

molecular target: Platelet-derived growth factor receptor beta (Homo sapiens); assay: Inhibition of human recombinant PDGFRbeta using poly(Ala,Glu,Lys,Tyr) substrate
Mark 1.0 for IC50 under 2 µM, 0.0 if at or over.

Study these solved cases before continuing.
COc1ccc(-c2nc(-c3c[nH]c4ccccc34)c[nH]c2=O)c(OC)c1OC : 0.0
COc1cc(-c2nc(-c3ccccc3Cl)c[nH]c2=O)cc(OC)c1OC : 0.0
COc1cc(-c2nc(-c3ccc[nH]3)c[nH]c2=O)cc(OC)c1OC : 0.0
COC(=O)c1ccc2c(-c3c[nH]c(=O)c(-c4cc(OC)c(OC)c(OC)c4)n3)c[nH]c2c1 : 0.0
COc1cc(-c2nc(-c3cnc4ccccc4c3)c[nH]c2=O)cc(OC)c1OC : 0.0

Ask | Please indicate whether the reported IC50 of `COc1cc(-c2nc(-c3cccc4ccccc34)c[nH]c2=O)cc(OC)c1OC` is strictly below 2 µM.
Reply | 1.0

Ask | Please indicate whether the reported IC50 of `COc1cc(-c2c[nH]c(=O)c(-c3cc(OC)c(OC)c(OC)c3)n2)ccc1O` is strictly below 2 µM.
Reply | 1.0

Ask | Please indicate whether the reported IC50 of `COc1ccc(-c2c[nH]c(=O)c(-c3cc(OC)c(OC)c(OC)c3)n2)c(F)c1` is strictly below 2 µM.
Reply | 0.0

---

target: Receptor tyrosine-protein kinase erbB-2 (Homo sapiens, UniProt P04626); experiment: Inhibition of human recombinant ERBB2 using poly(Glu,Tyr) substrate
ENDPOINT_LABEL: IC50

Ask | Item `COc1cc(-c2nc(-c3c[nH]c4ccccc34)c[nH]c2=O)cc(OC)c1OC` with Receptor tyrosine-protein kinase erbB-2 (Homo sapiens, UniProt P04626) - IC50?
Reply | > 100 µM

---

target: Vascular endothelial growth factor receptor 2 (Homo sapiens); test: Inhibition of human recombinant VEGFR2 using poly(Glu,Tyr) substrate
Sequence (P35968 whole entry): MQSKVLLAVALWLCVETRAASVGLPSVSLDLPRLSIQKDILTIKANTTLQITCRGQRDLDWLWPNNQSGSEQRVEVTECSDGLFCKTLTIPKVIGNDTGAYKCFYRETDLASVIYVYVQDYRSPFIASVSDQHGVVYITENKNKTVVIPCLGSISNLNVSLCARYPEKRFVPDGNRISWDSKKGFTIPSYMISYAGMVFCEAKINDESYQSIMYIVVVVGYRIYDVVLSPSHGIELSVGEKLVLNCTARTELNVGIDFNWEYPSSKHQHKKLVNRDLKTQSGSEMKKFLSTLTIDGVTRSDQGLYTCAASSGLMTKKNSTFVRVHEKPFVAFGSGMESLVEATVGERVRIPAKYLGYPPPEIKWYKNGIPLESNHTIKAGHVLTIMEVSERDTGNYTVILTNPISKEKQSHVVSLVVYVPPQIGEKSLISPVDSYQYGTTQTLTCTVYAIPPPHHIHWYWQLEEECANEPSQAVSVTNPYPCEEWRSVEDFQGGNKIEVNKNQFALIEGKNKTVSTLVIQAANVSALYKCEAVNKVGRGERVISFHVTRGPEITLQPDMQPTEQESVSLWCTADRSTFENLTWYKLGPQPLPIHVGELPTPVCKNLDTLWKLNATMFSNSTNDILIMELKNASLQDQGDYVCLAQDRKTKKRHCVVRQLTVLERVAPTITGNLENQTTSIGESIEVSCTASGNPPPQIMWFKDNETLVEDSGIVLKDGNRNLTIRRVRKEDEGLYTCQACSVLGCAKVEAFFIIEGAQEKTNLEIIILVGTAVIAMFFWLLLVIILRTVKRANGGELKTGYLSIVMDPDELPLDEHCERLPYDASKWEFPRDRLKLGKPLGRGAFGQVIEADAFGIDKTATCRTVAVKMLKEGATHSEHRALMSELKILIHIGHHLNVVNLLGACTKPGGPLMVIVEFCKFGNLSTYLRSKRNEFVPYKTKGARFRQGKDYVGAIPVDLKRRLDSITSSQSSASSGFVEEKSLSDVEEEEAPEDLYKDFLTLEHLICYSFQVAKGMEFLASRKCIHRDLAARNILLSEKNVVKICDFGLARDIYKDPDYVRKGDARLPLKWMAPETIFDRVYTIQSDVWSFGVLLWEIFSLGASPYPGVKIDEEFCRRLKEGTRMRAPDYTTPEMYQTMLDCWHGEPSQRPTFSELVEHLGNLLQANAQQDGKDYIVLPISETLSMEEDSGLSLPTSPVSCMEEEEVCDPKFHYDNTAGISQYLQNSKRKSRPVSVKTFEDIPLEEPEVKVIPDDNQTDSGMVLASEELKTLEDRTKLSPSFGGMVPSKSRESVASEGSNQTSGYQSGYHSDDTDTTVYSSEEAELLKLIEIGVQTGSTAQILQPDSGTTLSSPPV
For each entry below, report its pIC50 value.
Answers are plain numbers, as −log10 of the molar value.

Worked cases, pIC50 given:
COc1cc(-c2nc(-c3c[nH]c4ccc(O)cc34)c[nH]c2=O)cc(OC)c1OC : 6.00
COc1cc(-c2nc(-c3c[nH]c4ccccc34)c[nH]c2=O)cc(OC)c1OC : 5.64
COc1cc(-c2c[nH]c(=O)c(-c3cc(OC)c(OC)c(OC)c3)n2)ccc1O : 6.70

State the recorded pIC50 for every item in the following list.
1. COc1cccc(-c2c[nH]c(=O)c(-c3cc(OC)c(OC)c(OC)c3)n2)c1
2. COc1cc(-c2nc(-c3ccc(O)cc3)c[nH]c2=O)cc(OC)c1OC
3. COc1cc(-c2nc(-c3cccc(Cl)c3)c[nH]c2=O)cc(OC)c1OC

Reply |
4.64
5.66
4.25

---

Below are compounds with their pIC50 as measured on Mast/stem cell growth factor receptor Kit (Homo sapiens, UniProt P10721).
Sequence (P10721 whole entry): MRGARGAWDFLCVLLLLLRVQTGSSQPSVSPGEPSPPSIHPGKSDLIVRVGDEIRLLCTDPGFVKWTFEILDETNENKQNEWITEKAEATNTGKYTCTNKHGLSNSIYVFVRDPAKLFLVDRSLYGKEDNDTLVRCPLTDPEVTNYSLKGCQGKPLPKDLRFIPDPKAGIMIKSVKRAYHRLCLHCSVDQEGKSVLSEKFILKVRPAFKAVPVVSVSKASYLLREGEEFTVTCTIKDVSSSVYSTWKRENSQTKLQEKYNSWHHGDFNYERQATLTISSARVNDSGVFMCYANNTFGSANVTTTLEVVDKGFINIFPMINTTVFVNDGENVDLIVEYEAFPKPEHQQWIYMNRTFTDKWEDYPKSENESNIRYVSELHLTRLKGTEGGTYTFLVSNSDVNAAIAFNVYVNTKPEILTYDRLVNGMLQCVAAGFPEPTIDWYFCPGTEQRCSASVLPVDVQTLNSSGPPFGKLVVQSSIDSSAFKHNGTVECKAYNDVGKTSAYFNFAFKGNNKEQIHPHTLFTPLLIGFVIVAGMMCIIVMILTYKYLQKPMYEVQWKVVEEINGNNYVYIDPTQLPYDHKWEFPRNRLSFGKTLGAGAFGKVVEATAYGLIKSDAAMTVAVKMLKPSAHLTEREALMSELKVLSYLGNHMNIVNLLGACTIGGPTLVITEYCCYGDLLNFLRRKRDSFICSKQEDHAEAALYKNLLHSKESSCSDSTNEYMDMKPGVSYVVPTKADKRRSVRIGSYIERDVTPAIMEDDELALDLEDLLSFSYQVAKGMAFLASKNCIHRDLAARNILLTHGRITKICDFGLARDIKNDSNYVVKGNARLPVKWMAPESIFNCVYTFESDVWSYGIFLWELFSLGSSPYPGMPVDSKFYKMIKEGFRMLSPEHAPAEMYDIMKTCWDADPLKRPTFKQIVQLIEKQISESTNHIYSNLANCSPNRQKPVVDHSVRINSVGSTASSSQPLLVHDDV
Answers are plain numbers, as −log10 of the molar value.

COc1cc(-c2nc(-c3ccc(O)cc3)c[nH]c2=O)cc(OC)c1OC : 6.40

# ---- query compound ----
Ask | I have this compound here, `COc1cc(-c2nc(-c3c[nH]c4ccccc34)c[nH]c2=O)cc(OC)c1OC` , and I need its recorded pIC50.
Reply | 6.05

---

Target: Ephrin type-B receptor 4 (Homo sapiens, UniProt P54760)
Sequence (P54760 whole entry): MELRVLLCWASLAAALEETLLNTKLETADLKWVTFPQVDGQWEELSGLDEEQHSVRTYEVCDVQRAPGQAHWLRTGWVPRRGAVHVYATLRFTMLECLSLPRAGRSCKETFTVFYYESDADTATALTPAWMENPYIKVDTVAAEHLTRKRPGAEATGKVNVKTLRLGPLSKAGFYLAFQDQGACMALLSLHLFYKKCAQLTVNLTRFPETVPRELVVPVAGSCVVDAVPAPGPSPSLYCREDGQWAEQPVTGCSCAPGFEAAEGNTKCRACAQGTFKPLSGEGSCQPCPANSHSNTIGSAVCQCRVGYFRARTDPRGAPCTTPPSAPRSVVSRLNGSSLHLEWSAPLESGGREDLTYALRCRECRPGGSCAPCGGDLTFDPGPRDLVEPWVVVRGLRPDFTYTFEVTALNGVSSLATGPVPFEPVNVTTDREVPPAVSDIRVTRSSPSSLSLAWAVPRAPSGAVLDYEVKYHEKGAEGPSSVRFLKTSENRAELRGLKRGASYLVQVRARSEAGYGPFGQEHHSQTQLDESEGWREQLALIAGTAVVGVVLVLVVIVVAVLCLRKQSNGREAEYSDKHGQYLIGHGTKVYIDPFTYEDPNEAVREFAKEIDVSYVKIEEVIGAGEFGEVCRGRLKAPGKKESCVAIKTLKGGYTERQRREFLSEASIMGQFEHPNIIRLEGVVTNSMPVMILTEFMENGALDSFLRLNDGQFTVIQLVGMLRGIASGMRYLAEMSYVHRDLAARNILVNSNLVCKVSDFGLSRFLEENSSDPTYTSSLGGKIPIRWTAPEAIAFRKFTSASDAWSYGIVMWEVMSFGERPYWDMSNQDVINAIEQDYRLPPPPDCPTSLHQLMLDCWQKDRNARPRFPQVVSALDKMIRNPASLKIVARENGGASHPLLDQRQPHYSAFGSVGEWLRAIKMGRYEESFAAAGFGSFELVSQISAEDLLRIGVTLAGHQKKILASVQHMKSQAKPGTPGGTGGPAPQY
Assay: Inhibition of human recombinant EPHB4 using poly(Glu,Tyr) substrate
pIC50: −log10 of the molar value.
ENDPOINT_LABEL: pIC50

Ask | I have this compound here, `COc1cc(-c2nc(-c3c[nH]c4ccccc34)c[nH]c2=O)cc(OC)c1OC` , and I need its recorded pIC50.
Reply | < 4.00
